# Study target: T1, EsCas13d, nuclease-dead (Eubacterium siraeum, UniProt B0MS50, R295A;H300A;R849A;H854A)
# T1 sequence: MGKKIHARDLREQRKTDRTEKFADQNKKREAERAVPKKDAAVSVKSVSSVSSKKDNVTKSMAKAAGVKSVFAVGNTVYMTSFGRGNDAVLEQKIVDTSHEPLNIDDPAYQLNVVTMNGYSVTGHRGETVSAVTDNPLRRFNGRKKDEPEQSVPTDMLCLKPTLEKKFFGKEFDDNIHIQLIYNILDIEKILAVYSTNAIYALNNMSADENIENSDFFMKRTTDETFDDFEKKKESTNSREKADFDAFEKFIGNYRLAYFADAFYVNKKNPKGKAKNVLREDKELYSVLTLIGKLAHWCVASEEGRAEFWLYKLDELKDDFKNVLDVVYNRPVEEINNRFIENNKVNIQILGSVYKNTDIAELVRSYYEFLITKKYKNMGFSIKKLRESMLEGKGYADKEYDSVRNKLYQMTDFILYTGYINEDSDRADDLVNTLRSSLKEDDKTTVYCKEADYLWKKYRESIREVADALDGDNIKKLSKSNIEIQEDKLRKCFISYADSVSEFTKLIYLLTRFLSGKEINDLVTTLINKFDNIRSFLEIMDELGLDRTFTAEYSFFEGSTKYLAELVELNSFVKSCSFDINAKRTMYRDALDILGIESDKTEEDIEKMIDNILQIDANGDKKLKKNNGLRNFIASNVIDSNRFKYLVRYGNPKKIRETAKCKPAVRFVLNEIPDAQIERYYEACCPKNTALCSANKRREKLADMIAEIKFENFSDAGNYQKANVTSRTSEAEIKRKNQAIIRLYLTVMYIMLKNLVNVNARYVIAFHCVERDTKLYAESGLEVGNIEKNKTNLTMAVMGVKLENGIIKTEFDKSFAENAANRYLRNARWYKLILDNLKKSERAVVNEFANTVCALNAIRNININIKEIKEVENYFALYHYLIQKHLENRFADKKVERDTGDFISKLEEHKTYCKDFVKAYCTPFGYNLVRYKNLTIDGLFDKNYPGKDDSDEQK
# Protocol: crRNA (strand 1, pre-loaded); Mg2+; 40 mM Tris-HCl pH 7.5, 150 mM NaCl, 6 mM MgCl2, 1 mM DTT, 0.1% Tween-20, 0.2 mg/ml BSA; 25 C; 10 min per concentration, then washed
# Condition info: tags: His6-TwinStrep-SUMO cleaved; N-terminal SNAP kept (SNAP-Surface 488); label: 3' end held by stalled T7 RNA polymerase
Property label: Kd (nM)

{"columns": ["Binder", "Unit symbol", "Observed"],
 "data": [
  ["target 3 insA 3' of 8,insA 3' of 2 (mixed) RNA 1: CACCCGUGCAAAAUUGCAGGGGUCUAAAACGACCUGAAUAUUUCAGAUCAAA RNA 2: GGGAAUGGAUCCACAUCUACGAAUUCGUUUUUGAUCUGAAAUAUAUCAGGUACUGCAGAUCGGAAGAGCACACGU", "nM", 59.5],
  ["target 1 insA 3' of 15,insU 3' of 4 (mixed) RNA 1: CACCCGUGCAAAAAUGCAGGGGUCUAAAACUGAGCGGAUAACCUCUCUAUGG RNA 2: GGGAAUGGAUCCACAUCUACGAAUUCGUACCAUAGAGAAGGUUAUCCGCUUCACCGAGAUCGGAAGAGCACACGU", "nM", 9.5],
  ["target 1 insU 3' of 17,insA 3' of 12 (mixed) RNA 1: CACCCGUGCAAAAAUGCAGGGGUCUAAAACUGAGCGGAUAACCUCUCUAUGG RNA 2: GGGAAUGGAUCCACAUCUACGAAUUCGUACCAUAGUAGAGGAUUAUCCGCUCACCGAGAUCGGAAGAGCACACGU", "nM", 37],
  ["target 1 MT 5'PFS GUU 3'PFS CCU (mixed) RNA 1: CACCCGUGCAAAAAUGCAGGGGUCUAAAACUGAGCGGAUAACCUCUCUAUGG RNA 2: GGGAAUGGAUCCACAUCUACGAAUUCGUUCCAUAGAGAGGUUAUCCGCUCACCUAGAUCGGAAGAGCACACGU", "nM", 11.6]
]}

// provenance: paper PMC10786891
